# Test system: Staphylococcus aureus
# method: Antibacterial effect on agar gels
# Type: cell-based
# experimentalParameters: same amount (10 mg)
metricName: inhibiting zones on agar gel

CCOC(=O)OC(C)OC(=O)CCCCCCCC(=O)OC(C)OC(=O)OCC (stereo not shown)    large inhibiting zones
CCCC(=O)OCOC(=O)CCCCCCCC(=O)OCOC(=O)CCC [Example 12, bis-(butanoyloxymethyl)nonanedioate]    large inhibiting zones
CCCCCC(=O)OCOC(=O)CCCCCCCC(=O)OCOC(=O)CCCCC [Example 13, bis-(hexanoyloxymethyl) nonanedioate]    large inhibiting zones
